details: rat, in vivo, iv, 2.5 mg/kg
Give i.v. t1/2 for every item shown.
Give bare numbers, in min.

Solved entries (count: 5):
molecule: CCN(CC)CC.Nc1ncnc2c1ncn2[C@@H]1O[C@H](CNS(=O)(=O)NC(=O)c2ccccc2O)[C@@H](O)[C@H]1F [compound 12]
measured.quantity: i.v. t1/2
output.unit: min
experimental.result: 32.5
--
molecule: CCN(CC)CC.Nc1ncnc2c1ncn2[C@@H]1O[C@H](CNS(=O)(=O)NC(=O)c2ccccc2O)[C@@H](O)[C@@H]1F [compound 13]
measured.quantity: i.v. t1/2
output.unit: min
experimental.result: 31.7
--
molecule: CCN(CC)CC.Nc1ncnc2c1ncn2[C@@H]1O[C@H](CNS(=O)(=O)NC(=O)c2ccccc2O)[C@@H](F)[C@H]1O [compound 15]
measured.quantity: i.v. t1/2
output.unit: min
experimental.result: 37.0
--
molecule: CCN(CC)CC.Nc1ncnc2c1ncn2[C@@H]1O[C@H](CNS(=O)(=O)NC(=O)c2ccccc2O)[C@@H](F)[C@H]1F [compound 17]
measured.quantity: i.v. t1/2
output.unit: min
experimental.result: 267
--
molecule: CCN(CC)CC.Nc1ncnc2c1ncn2[C@@H]1O[C@H](CNS(=O)(=O)NC(=O)c2ccccc2O)[C@H](F)[C@H]1O [compound 14]
measured.quantity: i.v. t1/2
output.unit: min
experimental.result: 17.4

Query block: Query: i.v. t1/2; subject: CCN(CC)CC.Nc1ncnc2c1ncn2[C@@H]1O[C@H](CNS(=O)(=O)NC(=O)c2ccccc2O)[C@H](F)[C@H]1F [compound 16]
Result block: 17.2

----------
Give p.o. Cmax for every item shown.
conditions: rat, in vivo, po, 25 mg/kg

Solved entries (count: 5):
input.smiles: CCN(CC)CC.Nc1ncnc2c1ncn2[C@@H]1O[C@H](CNS(=O)(=O)NC(=O)c2ccccc2O)[C@@H](F)[C@H]1F
experimental.result: 5.99 ± 0.56 μg.mL^–1

input.smiles: CCN(CC)CC.Nc1ncnc2c1ncn2[C@@H]1O[C@H](CNS(=O)(=O)NC(=O)c2ccccc2O)[C@@H](O)[C@@H]1F
experimental.result: 1.09 ± 0.03 μg.mL^–1

input.smiles: CCN(CC)CC.Nc1ncnc2c1ncn2[C@@H]1O[C@H](CNS(=O)(=O)NC(=O)c2ccccc2O)[C@H](F)[C@H]1F
experimental.result: 0.97 ± 0.42 μg.mL^–1

input.smiles: CCN(CC)CC.Nc1ncnc2c1ncn2[C@@H]1O[C@H](CNS(=O)(=O)NC(=O)c2ccccc2O)[C@@H](F)[C@H]1O
experimental.result: 0.92 ± 0.04 μg.mL^–1

input.smiles: CCN(CC)CC.Nc1ncnc2c1ncn2[C@@H]1O[C@H](CNS(=O)(=O)NC(=O)c2ccccc2O)[C@@H](O)[C@H]1F
experimental.result: 0.46 ± 0.30 μg.mL^–1

Proceed to the following item.
Query block: Query: p.o. Cmax; subject: CCN(CC)CC.Nc1ncnc2c1ncn2[C@@H]1O[C@H](CNS(=O)(=O)NC(=O)c2ccccc2O)[C@H](F)[C@H]1O
Result block: 0.64 ± 0.22 μg.mL^–1
